experimentalTarget: MEK1 (Homo sapiens, UniProt Q02750)
Construct: purchased Reaction Biology Corporation
Sequence (Q02750 whole entry): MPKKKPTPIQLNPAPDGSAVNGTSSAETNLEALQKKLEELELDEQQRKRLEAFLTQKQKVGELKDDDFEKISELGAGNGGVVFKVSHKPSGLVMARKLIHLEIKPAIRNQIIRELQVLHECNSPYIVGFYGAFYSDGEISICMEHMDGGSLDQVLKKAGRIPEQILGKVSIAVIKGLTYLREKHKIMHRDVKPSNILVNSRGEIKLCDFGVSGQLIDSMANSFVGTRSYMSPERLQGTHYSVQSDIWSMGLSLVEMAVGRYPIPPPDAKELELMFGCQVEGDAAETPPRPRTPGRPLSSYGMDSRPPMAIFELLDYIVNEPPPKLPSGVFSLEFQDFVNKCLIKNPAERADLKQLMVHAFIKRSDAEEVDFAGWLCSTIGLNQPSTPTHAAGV
procedureSummary: Kinase inhibition assay
Format: biochemical
conditionParameters: 10 μM ATP; 5-dose IC50 mode
propertyName: IC50

smilesInput: CN1CCN(c2ccc(Nc3ncc(/C=C/C#N)c(NC4CCCC4)n3)cc2)CC1
result: > 1000 nM

###

experimentalTarget: PLK1 (Homo sapiens, UniProt P53350)
Construct: purchased Reaction Biology Corporation
Sequence (P53350 whole entry): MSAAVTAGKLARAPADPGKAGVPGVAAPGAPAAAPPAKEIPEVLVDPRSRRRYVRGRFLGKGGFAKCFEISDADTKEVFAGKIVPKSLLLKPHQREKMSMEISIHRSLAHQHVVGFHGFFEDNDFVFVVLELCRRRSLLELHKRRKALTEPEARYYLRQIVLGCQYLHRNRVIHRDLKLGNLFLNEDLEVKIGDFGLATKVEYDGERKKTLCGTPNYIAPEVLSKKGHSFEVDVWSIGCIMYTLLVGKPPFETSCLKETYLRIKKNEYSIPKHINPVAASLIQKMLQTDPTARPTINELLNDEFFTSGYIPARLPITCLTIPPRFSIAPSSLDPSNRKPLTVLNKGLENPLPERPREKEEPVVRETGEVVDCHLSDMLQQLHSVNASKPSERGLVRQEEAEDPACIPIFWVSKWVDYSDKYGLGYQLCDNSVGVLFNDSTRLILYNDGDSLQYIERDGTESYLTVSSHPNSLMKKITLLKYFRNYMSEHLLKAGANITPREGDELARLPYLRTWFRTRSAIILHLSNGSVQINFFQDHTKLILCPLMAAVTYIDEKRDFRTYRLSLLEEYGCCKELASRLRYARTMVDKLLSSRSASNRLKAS
procedureSummary: Kinase inhibition assay
Assay type: biochemical
conditionParameters: 10 μM ATP; 5-dose IC50 mode

compound: CN1CCN(c2ccc(Nc3ncc(/C=C/C#N)c(NC4CCCC4)n3)cc2)CC1 [Compound 8h]
IC50: 100 to 1000 nM
